I'd be grateful if you could share measured Percent Effect for these entries.
# EXPERIMENTAL SYSTEM: AMP-activated protein kinase, AMPK (Homo sapiens) (UniProt P54646+O43741+P54619+Q9UGJ0+Q9Y478+Q13131+Q9UGI9)
# ASSAY EXPLANATION: AMP-dependent Kinase enzyme assay. An in vitro enzyme assay that detects ADP turnover that is directly proportional to AMPK activity. This uses naive AMPK that is activated during the assay with MK-8722
# Format: functional
# Set-up: scale not given: direction of the effect not stated beside the values
# CONDITION DESCRIPTION: 30 µM

Examples with their reported Percent Effect follow.
{"columns": ["MOLECULE", "Percent Effect"],
 "data": [
  ["CCN(Cc1nc(Cc2ccccc2)no1)C1CC1", "9.85%"],
  ["c1ccc(CN2CCN(C3CCOC4(CCOCC4)C3)CC2)nc1 (stereo unspecified)", "-0.926%"]
]}

Hi! Can you tell me Percent Effect for each of these molecules?
1. Cc1ccc(C(CNC(=O)c2cc(=O)c3ccccc3[nH]2)N(C)C)cc1 (stereo unspecified)
2. FC(F)(F)c1cc(C2CCCN(Cc3ccncc3)C2)n[nH]1 (stereo unspecified)
3. Cc1cc(N2CCOC(c3ccc(N(C)C)cn3)C2)nc(N)n1 (stereo unspecified)
4. CNC(=O)Cc1ccc(NC(=O)NCc2nc(C)sc2C)cc1
5. Cc1cc(Oc2ccc(NC(=O)C3CC3)cc2)cc(C2CCNCC2)n1

1: 6.26%; 2: 3.39%; 3: 7.96%; 4: 0.571%; 5: -9.8%
